- STUDY_SYSTEM: Serine/threonine-protein kinase pim-1 (Homo sapiens, UniProt P11309)
- Sequence (P11309 whole entry): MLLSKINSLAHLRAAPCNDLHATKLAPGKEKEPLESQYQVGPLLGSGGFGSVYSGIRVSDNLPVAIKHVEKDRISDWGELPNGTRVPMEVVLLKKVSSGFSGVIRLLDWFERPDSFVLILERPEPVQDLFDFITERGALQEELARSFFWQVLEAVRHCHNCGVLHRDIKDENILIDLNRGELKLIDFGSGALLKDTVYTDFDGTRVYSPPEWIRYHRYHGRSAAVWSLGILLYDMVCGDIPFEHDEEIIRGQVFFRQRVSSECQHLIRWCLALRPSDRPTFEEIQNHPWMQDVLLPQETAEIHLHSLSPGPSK
- ASSAY: Inhibition of recombinant full length human PIM1 expressed in bacteria using histone H1 as substrate in presence of [gamma-33P]ATP
pIC50: −log10 of the molar value.
Entries and their pIC50 values follow.

- MOLECULE_SMILES: "Cn1cc(C2=C(c3cn(CCCCCC(=O)O)c4ccccc34)C(=O)N(O)C2=O)c2ccccc21"
  pIC50: "< 5.00"
- MOLECULE_SMILES: "CCn1cc(C2=C(c3cn(C)c4ccccc34)C(=O)N(O)C2=O)c2ccccc21"
  pIC50: "< 5.00"
- MOLECULE_SMILES: "O=C(O)CCCCCn1cc(C2=C(c3c[nH]c4ccccc34)C(=O)N(O)C2=O)c2ccccc21"
  pIC50: "< 5.00"

---

- System: RXF 393
- ASSAY: Cytotoxicity against human RXF393 cells assessed as cell growth at 10 uM after 48 hrs by SRB assay relative to control
- Type: functional
- CONDITION_SET: RXF 393, 48 h, read-out: Activity

- MOLECULE_SMILES: "Cn1cc(C2=C(c3cn(CCCCCC#N)c4ccccc34)C(=O)N(O)C2=O)c2ccccc21"
  growth at 10 µM: "90%"
- MOLECULE_SMILES: "CC(C)n1cc(C2=C(c3cn(C)c4ccccc34)C(=O)N(O)C2=O)c2ccccc21"
  growth at 10 µM: "89.2%"
- MOLECULE_SMILES: "N#CCCCCCn1cc(C2=C(c3cn(CCCCCC#N)c4ccccc34)C(=O)N(O)C2=O)c2ccccc21"
  growth at 10 µM: "2 to 73.2%"

---

- Test system: T47D
- ASSAY: Cytotoxicity against human T47D cells assessed as cell growth at 10 uM after 48 hrs by SRB assay relative to control
- Assay type: functional
- CONDITION_SET: read-out: Activity

- MOLECULE_SMILES: "Cn1cc(C2=C(c3c[nH]c4ccccc34)C(=O)N(O)C2=O)c2ccccc21"
  growth at 10 µM, %: 60.9
- MOLECULE_SMILES: "N#CCCCCCn1cc(C2=C(c3cn(CCCCCC#N)c4ccccc34)C(=O)NC2=O)c2ccccc21"
  growth at 10 µM, %: 67.6
- MOLECULE_SMILES: "Cn1cc(C2=C(c3cn(CCCCCC#N)c4ccccc34)C(=O)N(O)C2=O)c2ccccc21"
  growth at 10 µM, %: 78.5

---

- STUDY_SYSTEM: CDK2/Cyclin A2 (Homo sapiens)
- ASSAY: Inhibition of full length human CDK2/cyclin A using histone H1 as substrate in presence of [gamma-33P]ATP
pIC50: −log10 of the molar value.

- MOLECULE_SMILES: "Cn1cc(C2=C(c3c[nH]c4ccccc34)C(=O)N(O)C2=O)c2ccccc21"
  STUDY_SYSTEM: "CDK2/Cyclin A2 (Homo sapiens)"
  pIC50: "< 5.00"
- MOLECULE_SMILES: "CC(C)n1cc(C2=C(c3c[nH]c4ccccc34)C(=O)N(O)C2=O)c2ccccc21"
  STUDY_SYSTEM: "CDK2/Cyclin A2 (Homo sapiens)"
  pIC50: "< 5.00"
- MOLECULE_SMILES: "N#CCCCCCn1cc(C2=C(c3cn(CCCCCC#N)c4ccccc34)C(=O)NC2=O)c2ccccc21"
  STUDY_SYSTEM: "CDK2/Cyclin A2 (Homo sapiens)"
  pIC50: 5.60

Data origin, for the record: ChEMBL document CHEMBL4229455
